Entries and their Hill coefficient (chloride conductance) values follow.
target: LRRC8/VRAC (Homo sapiens); construct: tested in wild-type HEK-293 cells expressing LRRC8 proteins; endogenous in cells; host or cells: wild-type HEK-293 cells; experiment: Patch-clamp whole-cell recording of hypotonicity-activated VRAC/LRRC8 chloride current (ICl,swell); format: cell-based; details: whole-cell, WT HEK-293, fitted concentration-response curve at -100 mV

Below, 4 compounds whose answers are already recorded.
compound	assay.target	Hill coefficient (chloride conductance)
Cc1ccc(C2Nc3ccccc3-n3c(-c4ccccc4)c4c(=O)n(C)c(=O)n(C)c4c32)o1 (centres unmarked) [PPQ-102]	LRRC8/VRAC (Homo sapiens)	2.2 ± 1.2
O=C(O)c1cccnc1Nc1cccc(C(F)(F)F)c1 [NFA, niflumic acid]	LRRC8/VRAC (Homo sapiens)	0.8 ± 0.4
O=C(CNc1ccc2ccccc2c1)N/N=C/c1cc(Br)c(O)c(Br)c1O [GlyH-101]	LRRC8/VRAC (Homo sapiens)	0.9 ± 0.4
CCCCC1(C2CCCC2)Cc2cc(OCCCC(=O)O)c(Cl)c(Cl)c2C1=O (centres unmarked) [DCPIB]	LRRC8/VRAC (Homo sapiens)	2.9 ± 1.1

We next turn to a different compound, shown below.
Task: Find the recorded Hill coefficient (chloride conductance) belonging to CCc1c(C)nc(SCC(=O)Nc2nc(-c3ccc(OC)cc3)cs2)[nH]c1=O [T16Ainh-A01] and report it.
Output: 1.5 ± 0.6

----------
target: LRRC8/VRAC (Homo sapiens, UniProt Q8IWT6); construct: tested in wild-type HEK-293 cells expressing LRRC8 proteins; endogenous in cells; host or cells: wild-type HEK-293 cells; assay: Patch-clamp whole-cell recording of hypotonicity-activated VRAC/LRRC8 chloride current (ICl,swell); type: cell-based; details: 10 μM inhibitor, whole-cell, -100 mV; read-out: Inhibition at 10 μM (%) of chloride conductance
Sequence (Q8IWT6 whole entry): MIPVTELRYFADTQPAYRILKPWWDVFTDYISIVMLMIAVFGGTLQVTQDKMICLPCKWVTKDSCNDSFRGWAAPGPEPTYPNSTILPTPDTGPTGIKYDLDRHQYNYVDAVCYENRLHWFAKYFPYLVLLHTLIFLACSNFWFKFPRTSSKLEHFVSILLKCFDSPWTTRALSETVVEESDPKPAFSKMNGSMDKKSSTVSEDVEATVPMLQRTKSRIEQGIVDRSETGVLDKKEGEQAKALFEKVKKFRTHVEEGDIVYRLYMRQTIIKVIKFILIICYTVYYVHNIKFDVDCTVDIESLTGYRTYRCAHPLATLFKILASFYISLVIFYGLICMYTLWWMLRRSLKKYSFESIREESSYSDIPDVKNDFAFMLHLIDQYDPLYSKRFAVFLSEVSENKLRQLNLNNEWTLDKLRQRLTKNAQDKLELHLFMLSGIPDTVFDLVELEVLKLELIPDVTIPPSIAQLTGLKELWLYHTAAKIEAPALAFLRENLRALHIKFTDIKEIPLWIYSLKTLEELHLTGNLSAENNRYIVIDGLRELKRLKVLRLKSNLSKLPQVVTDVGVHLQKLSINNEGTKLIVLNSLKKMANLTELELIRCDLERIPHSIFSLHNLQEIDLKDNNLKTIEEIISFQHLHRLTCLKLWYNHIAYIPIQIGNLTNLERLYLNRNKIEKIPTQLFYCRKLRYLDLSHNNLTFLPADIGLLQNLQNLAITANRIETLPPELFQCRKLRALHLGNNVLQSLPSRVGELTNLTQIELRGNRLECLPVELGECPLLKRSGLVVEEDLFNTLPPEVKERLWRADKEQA
Sequence (Q7L1W4 whole entry partner): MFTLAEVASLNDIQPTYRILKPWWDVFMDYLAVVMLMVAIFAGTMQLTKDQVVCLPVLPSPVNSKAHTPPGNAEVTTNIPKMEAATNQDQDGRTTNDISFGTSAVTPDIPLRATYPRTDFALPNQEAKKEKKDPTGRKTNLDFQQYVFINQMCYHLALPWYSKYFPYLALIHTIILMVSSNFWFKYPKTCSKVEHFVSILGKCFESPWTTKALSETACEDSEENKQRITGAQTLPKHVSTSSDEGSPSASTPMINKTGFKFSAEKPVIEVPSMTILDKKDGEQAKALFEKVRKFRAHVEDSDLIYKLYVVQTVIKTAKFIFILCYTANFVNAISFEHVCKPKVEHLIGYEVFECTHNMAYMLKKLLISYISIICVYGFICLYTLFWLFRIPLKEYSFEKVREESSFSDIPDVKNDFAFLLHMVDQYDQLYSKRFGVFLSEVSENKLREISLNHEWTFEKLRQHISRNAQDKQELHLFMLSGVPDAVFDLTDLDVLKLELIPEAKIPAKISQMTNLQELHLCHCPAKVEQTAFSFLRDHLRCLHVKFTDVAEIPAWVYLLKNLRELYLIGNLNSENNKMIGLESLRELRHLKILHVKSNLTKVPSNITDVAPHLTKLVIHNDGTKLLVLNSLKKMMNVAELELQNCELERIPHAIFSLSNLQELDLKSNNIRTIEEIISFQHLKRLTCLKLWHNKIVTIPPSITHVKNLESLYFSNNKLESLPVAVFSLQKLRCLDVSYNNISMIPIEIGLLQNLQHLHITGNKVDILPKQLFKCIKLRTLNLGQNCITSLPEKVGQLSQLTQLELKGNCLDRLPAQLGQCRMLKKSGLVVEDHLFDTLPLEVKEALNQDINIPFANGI
assay.readout: inhibition at 10 µM
Include the unit after the number when you answer.

Below, 4 molecules whose answers are already recorded.
molecule	inhibition at 10 µM
O=C(CNc1ccc2ccccc2c1)N/N=C/c1cc(Br)c(O)c(Br)c1O	46.6%
CCc1c(C)nc(SCC(=O)Nc2nc(-c3ccc(OC)cc3)cs2)[nH]c1=O	58.4%
O=C(O)c1cccnc1Nc1cccc(C(F)(F)F)c1	23%
Cc1ccc(C2Nc3ccccc3-n3c(-c4ccccc4)c4c(=O)n(C)c(=O)n(C)c4c32)o1 (centres unmarked)	18.3%

Task: Given the entry CCCCC1(C2CCCC2)Cc2cc(OCCCC(=O)O)c(Cl)c(Cl)c2C1=O (centres unmarked) , what inhibition at 10 µM was observed with LRRC8/VRAC (Homo sapiens, UniProt Q8IWT6)?
Output: 82.7%
